- TARGET OR SYSTEM: Serine/threonine-protein kinase PAK 2 (Homo sapiens) (UniProt Q13177);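 note: values are mean percent inhibition of PAK2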
- Sequence (Q13177 whole entry): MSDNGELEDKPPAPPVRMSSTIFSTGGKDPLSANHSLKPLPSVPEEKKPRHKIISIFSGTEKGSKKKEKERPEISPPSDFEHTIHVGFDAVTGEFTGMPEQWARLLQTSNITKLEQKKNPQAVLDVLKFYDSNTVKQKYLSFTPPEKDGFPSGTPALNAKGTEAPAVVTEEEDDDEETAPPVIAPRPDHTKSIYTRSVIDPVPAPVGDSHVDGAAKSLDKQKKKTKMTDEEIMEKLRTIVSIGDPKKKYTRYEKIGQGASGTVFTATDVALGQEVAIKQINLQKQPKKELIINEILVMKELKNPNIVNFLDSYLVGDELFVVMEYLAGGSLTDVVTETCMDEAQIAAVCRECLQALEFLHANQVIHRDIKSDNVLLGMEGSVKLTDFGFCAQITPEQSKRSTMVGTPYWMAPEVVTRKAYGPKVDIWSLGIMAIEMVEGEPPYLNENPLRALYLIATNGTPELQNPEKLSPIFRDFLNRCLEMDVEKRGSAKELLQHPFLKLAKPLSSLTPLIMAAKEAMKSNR
- STUDY CONDITIONS: at 0.1 µM
REPORTED ENDPOINT: inhibition (%)
Please give a number only; it is taken to be in %.

Entry `CC(C)=Cc1cccc2c1/C(=N/Nc1ccc(S(N)(=O)=O)cc1)C(=O)N2` under Serine/threonine-protein kinase PAK 2 (Homo sapiens) (UniProt Q13177) had inhibition of 0.39

Entry `CCn1c(-c2nonc2N)nc2cnc(Oc3cccc(NC(=O)c4ccc(OCCN5CCOCC5)cc4)c3)cc21` under Serine/threonine-protein kinase PAK 2 (Homo sapiens) (UniProt Q13177) had inhibition of -0.41

Entry `CCn1c(-c2nonc2N)nc2c(C#CC(C)(C)O)nc(OC[C@@H](N)c3ccccc3)cc21` under Serine/threonine-protein kinase PAK 2 (Homo sapiens) (UniProt Q13177) had inhibition of 3.89

Entry `CS(=O)(=O)Nc1ccc(N/C=C2\C(=O)Nc3ccccc32)cc1` under Serine/threonine-protein kinase PAK 2 (Homo sapiens) (UniProt Q13177) had inhibition of -1.89

Entry `CS(=O)(=O)CCNCc1ccc(-c2ccc3ncnc(Nc4ccc(OCc5ccccc5)c(Cl)c4)c3c2)o1` under Serine/threonine-protein kinase PAK 2 (Homo sapiens) (UniProt Q13177) had inhibition of 0.77

Entry `Cn1cc(C=C2C(=O)Nc3cccnc32)c2ccccc21` under Serine/threonine-protein kinase PAK 2 (Homo sapiens) (UniProt Q13177) had inhibition of 0.8

Entry `NCc1ccc(-c2nc(-c3ccc(Cl)c(O)c3)c(-c3ccncc3)[nH]2)cc1` under Serine/threonine-protein kinase PAK 2 (Homo sapiens) (UniProt Q13177) had inhibition of -1.23

Entry `NC(=O)c1cccc(Nc2nccc(Nc3cccc4[nH]ncc34)n2)c1` under Serine/threonine-protein kinase PAK 2 (Homo sapiens) (UniProt Q13177) had inhibition of -3.16

Entry `CN(C)c1cc2c(Nc3ccc4nc(Cc5ccccc5)[nH]c4c3)ncnc2cn1` under Serine/threonine-protein kinase PAK 2 (Homo sapiens) (UniProt Q13177) had inhibition of 2.07

Entry `O=C1Nc2ccc(C(=O)c3ccco3)cc2C1=Cc1cc(Cl)c(O)c(Cl)c1` under Serine/threonine-protein kinase PAK 2 (Homo sapiens) (UniProt Q13177) had inhibition of 1.29

Taken from ChEMBL document CHEMBL1961873.
